Test: Polymorph screening of solid state drug substances
Conditions: MTBE; target conc. 100 mg/ml; RT

SMILES_REPRESENTATION	Visual observation RT
C=C1CC[C@@]2(O)C3Cc4ccc(OC(=O)CCCCCCCCCCCCCCCCCCCCC)c5c4[C@@]2(CCN3CC2CC2)[C@H]1O5	Clear
CCCCCCCCCCOC(=O)Oc1ccc2c3c1O[C@H]1C(=O)CC[C@@]4(O)C(C2)N(CC2CC2)CC[C@]314	Clear

---

Assay: Plasma stability assay, dog plasma
Format: in vitro ADME
Conditions: 37° C., 2 μM, 1440 min (as headed)
Flag rule - % remaining at time point in minutes, 1440 min less than 90% flags fulfilled; the remaining entries get not fulfilled.

COMPOUND	ASSIGNED_LABEL
CCCCCCCCCCCC(=O)OCN1C(=O)CCc2ccc(OCCCCN3CCN(c4cccc(Cl)c4Cl)CC3)cc21 [Aripiprazole lauroxil, reference compound]	fulfilled
CCCCCCCCCCCCCCCC(=O)OC1CCCn2c1nc(C)c(CCN1CCC(c3noc4cc(F)ccc34)CC1)c2=O (centres unmarked) [Paliperidone palmitate, reference compound]	not fulfilled
C=C1CC[C@@]2(O)C3Cc4ccc(OC(=O)CCCCCCC/C=C/CCCCCCCC)c5c4[C@@]2(CCN3CC2CC2)[C@H]1O5	fulfilled
C=C1CC[C@@]2(O)C3Cc4ccc(OC(=O)OCCCCCCCCCCCC)c5c4[C@@]2(CCN3CC2CC2)[C@H]1O5	not fulfilled
C=C1CC[C@@]2(O)C3Cc4ccc(OCOC(=O)OCCCCCCCCCCCC)c5c4[C@@]2(CCN3CC2CC2)[C@H]1O5	not fulfilled
